Every entry's value here was drawn from paper PMC6052416.

Please go through the items and note down their IC50.
# Tested on: HEK-293 (embryonic kidney epithelial cell)
# protocol_details: WST-1 cytotoxicity, HEK-293
# Assay type: cell-based
# recorded_conditions: WST-1, 72 h, normal cell; read-out: IC50 HEK-293 72 h
Numbers only, in µM.

Your task in this section: give IC50 for each listed record.
1. COc1ccc(C=Nc2ccc(S(N)(=O)=O)cc2)cc1
2. COc1ccc(C=NCCc2ccc(S(N)(=O)=O)cc2)cc1
3. Cc1cccc(C=NCCc2ccc(S(N)(=O)=O)cc2)c1O
4. Cc1ccc(C=Nc2ccc(S(N)(=O)=O)cc2)cc1
5. NS(=O)(=O)c1ccc(CCN=Cc2cc(Br)ccc2O)cc1
6. Cc1ccc(C=NCCc2ccc(S(N)(=O)=O)cc2)cc1

Result:
1. 100
2. 85.4
3. 75.2
4. 170
5. 35.8
6. 96.2

Your task in this section: give IC50 for each listed record.
1. Cc1cccc(C=Nc2ccc(S(N)(=O)=O)cc2)c1O
2. O=c1[nH]cc(F)c(=O)[nH]1 [Compound 5-FU, reference compound]

Result:
[37.9, 14.5]

----------
# Tested on: MDA-MB-231 (breast adenoma cancer cell)
# protocol_details: WST-1 cytotoxicity, MDA-MB-231
# Assay type: cell-based, human
# recorded_conditions: WST-1, 48 h; read-out: IC50 MDA-MB-231 48 h
parameter_measured: pIC50
Give bare numbers, as −log10 of the molar value.

# example entries with known answers
Cc1cccc(C=Nc2ccc(S(N)(=O)=O)cc2)c1O [Compound 3]; 4.09
Cc1ccc(C=Nc2ccc(S(N)(=O)=O)cc2)cc1 [Compound 5]; 4.13
O=c1[nH]cc(F)c(=O)[nH]1 [Compound 5-FU, reference compound]; 4.42

Your task in this section: give pIC50 for each listed record.
1. COc1ccc(C=NCCc2ccc(S(N)(=O)=O)cc2)cc1 [Compound 7]
2. NS(=O)(=O)c1ccc(CCN=Cc2cc(Br)ccc2O)cc1 [Compound 1]

Result:
[3.91, 4.16]
